test system: TMR-KRRR-NH2 (synthetic); sequence: KRRR; test: FP; details: 2 mM NaCl, pH 7.4
Endpoint: Kd (nM)

entry_sequence="GACGACTAGGACGACGACGAGGATGACGAC (double strand) [30-mer dsDNA]" measured_on="TMR-KRRR-NH2 (synthetic)" experimental_result=46

---

test system: TMR-RRRR-NH2 (synthetic); sequence: RRRR; assay: FP; settings: 2 mM NaCl, pH 7.4
Endpoint: Kd (nM)

entry_sequence="GACGACTAGGACGACGACGAGGATGACGAC (double strand) [30-mer dsDNA]" endpoint=Kd measurement_units=nM experimental_result=31

---

system: TMR-(RS)4-NH2 (synthetic); assay: FP; settings: 2 mM NaCl, pH 7.4
pKd: −log10 of the molar value.
Endpoint: pKd

entry_sequence="GACGACTAGGACGACGACGAGGATGACGAC (double strand) [30-mer dsDNA]" experimental_result=6.89

Ref: patent US20210300974
